# System: CP238
# protocolNotes: qHTS profiling for inhibitors of Plasmodium falciparum proliferation (AID 504749); note: nearly all actives have a fitted effect of over 60% in size
# assayConditions: P. falciparum in erythrocytes, SYBR Green DNA, 72 h; series mostly up to 12.8 µM
# Experimental: NIH National Institute of Allergy and Infectious Diseases [NIAID] NIH Chemical Genomics Center [NCGC] […] Because mature erythrocytes lack DNA, only Plasmodium-derived DNA is detected. NCGC Assay Protocol Summary: The SYBR Green viability assay was adapted from a method described previously (Plouffe et al., 2008). […] The following morning, fluorescence intensity at 485(14) nm excitation and 535(25) nm emission wavelengths was measured on an EnVision (Perkin Elmer) plate reader. […]
Records with an inconclusive call do not appear. Activity calls are given as the source filed them. Calls come from the whole dose curve; as a rule, active = well fitted inhibition curve with a large enough effect; inconclusive = small, poorly fitted or top-dose-only effect; inactive = flat fitted curve, though single readings scatter.
Output constraint: value belongs to active, inactive

Solved entries:
compound: COc1cc(/C=C/C(=O)/C=C(O)/C=C/c2ccc(O)c(OC)c2)ccc1O
assignedCategory: inactive

compound: CN[C@@H](CC(C)C)C(=O)N[C@@H]1C(=O)N[C@H](CC(N)=O)C(=O)N[C@@H]2C(=O)N[C@H]3C(=O)N[C@H](C(=O)N[C@H](C(=O)O)c4cc(O)cc(O)c4-c4cc3ccc4O)[C@H](O)c3ccc(c(Cl)c3)Oc3cc2cc(c3O[C@H]2O[C@@H](CO)[C@@H](O)[C@@H](O)[C@@H]2O[C@@H]2C[C@](C)(N)[C@H](O)[C@H](C)O2)Oc2ccc(cc2Cl)[C@@H]1O
assignedCategory: inactive

compound: O=C(Cc1cccs1)NC1C(=O)N2C(C(=O)[O-])=C(C[n+]3ccccc3)CSC12 (stereo unspecified)
assignedCategory: inactive

(Q) State the result this test recorded for CC(=O)N(CC(O)CN(C(C)=O)c1c(I)c(C(=O)NC[C@@H](O)CO)c(I)c(C(=O)NC[C@@H](O)CO)c1I)c1c(I)c(C(=O)NC[C@@H](O)CO)c(I)c(C(=O)NC[C@@H](O)CO)c1I .
(A) inactive

(Q) State the result this test recorded for CC(=O)Nc1c(I)c(C(=O)N[C@H]2[C@@H](O)[C@H](O)[C@H](CO)O[C@@H]2O)c(I)c(N(C)C(C)=O)c1I .
(A) inactive
